These data points were gathered from ChEMBL document CHEMBL4715736.

Reported values of growth at 10 µM for individual entries
# Test system: SF-268
# Test Method Notes: Growth inhibition of human SF-268 cells assessed as cell growth at 10 uM incubated for 48 hrs by sulforhodamine B assay relative to control
# Type: functional
# Stated Conditions: read-out: Activity
Reported Endpoint: growth at 10 µM (%)

Structure Smiles String: O=S(=O)(c1ccccc1)n1ccc(-c2ccc3c(c2)CCO3)n1
Reported Endpoint: growth at 10 µM
Obs Value: 92.8

Structure Smiles String: CCc1cccc(C)c1NC(=O)c1sc2nc3c(cc2c1N)C(=O)CCC3
Reported Endpoint: growth at 10 µM
Obs Value: 38

Structure Smiles String: Cc1cc(C)cc(S(=O)(=O)n2ccc(-c3ccc4c(c3)CCC(C)(C)O4)n2)c1
Reported Endpoint: growth at 10 µM
Obs Value: 88.3

Structure Smiles String: Cc1cccc(NC(=O)c2sc3nc4c(cc3c2N)CN(Cc2ccccc2)CC4)c1
Reported Endpoint: growth at 10 µM
Obs Value: 103

Structure Smiles String: CC(=O)c1ccc2c(N)c(C(=O)Nc3ccccc3)sc2n1
Reported Endpoint: growth at 10 µM
Obs Value: 112

Structure Smiles String: Cc1cccc(NC(=O)c2sc3nc4c(cc3c2N)C(=O)CCC4)c1
Reported Endpoint: growth at 10 µM
Obs Value: 33

Structure Smiles String: COc1ccc(S(=O)(=O)n2ccc(-c3ccc(OC(C)C)cc3)n2)cc1
Reported Endpoint: growth at 10 µM
Obs Value: 100

Structure Smiles String: CC1(C)CCc2cc(-c3ccn(S(=O)(=O)c4ccc(C(C)(C)C)cc4)n3)ccc2O1
Reported Endpoint: growth at 10 µM
Obs Value: 92.1

Structure Smiles String: CN1CCc2nc3sc(C(N)=O)c(N)c3c(-c3cccs3)c2C1
Reported Endpoint: growth at 10 µM
Obs Value: 10

Structure Smiles String: CC1(C)CCc2cc(-c3ccn(S(=O)(=O)c4ccc(Cl)cc4Cl)n3)ccc2O1
Reported Endpoint: growth at 10 µM
Obs Value: 99.5

Structure Smiles String: CCOc1ccc(-c2cc(N)n(S(=O)(=O)c3ccc(OC)cc3)n2)cc1
Reported Endpoint: growth at 10 µM
Obs Value: 109

Structure Smiles String: Cc1ccc(S(=O)(=O)n2ccc(-c3ccc(OCCCF)cc3)n2)cc1
Reported Endpoint: growth at 10 µM
Obs Value: 103

Structure Smiles String: CC(=O)Nc1ccc(S(=O)(=O)n2ccc(-c3ccc4c(c3)CCC(C)(C)O4)n2)cc1
Reported Endpoint: growth at 10 µM
Obs Value: 77.2

Structure Smiles String: CC1(C)CCc2cc(-c3ccn(S(=O)(=O)c4ccccc4)n3)ccc2O1
Reported Endpoint: growth at 10 µM
Obs Value: 85.4

Structure Smiles String: Nc1c(C(=O)N(c2ccccc2)c2ccccc2)sc2nc3c(cc12)C(=O)CCC3
Reported Endpoint: growth at 10 µM
Obs Value: 99.8

Structure Smiles String: Nc1c(C(=O)Nc2ccccc2)sc2nc3c(cc12)CN(Cc1ccccc1)CC3
Reported Endpoint: growth at 10 µM
Obs Value: 38

Structure Smiles String: COc1ccc(S(=O)(=O)n2ccc(-c3ccc4c(c3)CCC(C)(C)O4)n2)cc1
Reported Endpoint: growth at 10 µM
Obs Value: 94.7

Structure Smiles String: CC(=O)c1cccc(NC(=O)c2sc3nc4c(cc3c2N)C(=O)CCC4)c1
Reported Endpoint: growth at 10 µM
Obs Value: 110

Structure Smiles String: COc1ccc(S(=O)(=O)n2ccc(-c3ccc4c(c3)CCC(C)(C)O4)n2)cc1OC
Reported Endpoint: growth at 10 µM
Obs Value: 85.3

Structure Smiles String: CCc1ccccc1NC(=O)c1sc2nc3c(cc2c1N)C(=O)CCC3
Reported Endpoint: growth at 10 µM
Obs Value: 40.4

Structure Smiles String: COc1ccc(-c2ccn(S(=O)(=O)c3ccc(C)cc3)n2)cc1
Reported Endpoint: growth at 10 µM
Obs Value: 95.9

Structure Smiles String: COc1ccc(-c2ccn(S(=O)(=O)c3ccc(OC)cc3)n2)cc1
Reported Endpoint: growth at 10 µM
Obs Value: 95.6

Structure Smiles String: Cc1ccc(NC(=O)c2sc3nc4c(cc3c2N)C(=O)CCC4)cc1C
Reported Endpoint: growth at 10 µM
Obs Value: 42.7

Structure Smiles String: COc1cccc(NC(=O)c2sc3nc4c(cc3c2N)CN(Cc2ccccc2)CC4)c1
Reported Endpoint: growth at 10 µM
Obs Value: 18

Structure Smiles String: Cc1cc(C)c(NC(=O)c2sc3nc4c(cc3c2N)CN(Cc2ccccc2)CC4)c(C)c1
Reported Endpoint: growth at 10 µM
Obs Value: 42

Structure Smiles String: CC1(C)CCc2cc(-c3ccn(S(=O)(=O)c4ccc(C(F)(F)F)cc4)n3)ccc2O1
Reported Endpoint: growth at 10 µM
Obs Value: 104

Structure Smiles String: CC(C)N1CCc2nc3sc(C(=O)Nc4ccccc4)c(N)c3cc2C1
Reported Endpoint: growth at 10 µM
Obs Value: 113

Structure Smiles String: O=S(=O)(c1ccc(Br)cc1)n1ccc(-c2ccc(OCCCF)cc2)n1
Reported Endpoint: growth at 10 µM
Obs Value: 98.5
